# SYSTEM: BRG-1 (Homo sapiens)
# TEST: ATPase catalytic activity assay of BRG-1 (ADP-Glo)
# Format: biochemical
# PROTOCOL_CONDITIONS: ATPase catalytic activity, ADP-Glo; read-out: BRG1 IC50 (μM)*
# IC50 listing for each entry below
VALUE_KIND: IC50

- MOLECULE: "Cn1ncc(-c2cccc(-c3csc(NC(=O)CNC(=O)c4cccc(C(C)(C)CO)c4)n3)c2)n1"
  VALUE_KIND: "IC50"
  DATA_VALUE: "1 to 5 µM"
- MOLECULE: "Cn1ccc(-c2cccc(-c3csc(NC(=O)CNC(=O)c4ccc5c(c4)[C@](C)(CO)CC5)n3)n2)n1"
  VALUE_KIND: "IC50"
  DATA_VALUE: "> 5 µM"
- MOLECULE: "C[C@@]1(C#N)COCc2ccc(C(=O)NCC(=O)Nc3nc(-c4cc(F)c5c(c4)CCO5)cs3)cc21"
  VALUE_KIND: "IC50"
  DATA_VALUE: "< 0.1 µM"
- MOLECULE: "CN1CCc2ccc(-c3csc(NC(=O)CNC(=O)c4ccc5c(c4)C(C)(CO)CC5)n3)cc2C1=O (stereo in doubt)"
  VALUE_KIND: "IC50"
  DATA_VALUE: "0.1 to 1 µM"

###

# SYSTEM: BRG-1 (Homo sapiens)
# TEST: ATPase catalytic activity assay of BRG-1 (ADP-Glo)
# Type: biochemical
# PROTOCOL_CONDITIONS: ATPase catalytic activity, ADP-Glo; read-out: BRG1 IC50 (μM)*
VALUE_KIND: IC50

- COMPOUND: "CN1C[C@@](C)(C#N)c2cc(C(=O)NCC(=O)Nc3nc(-c4cc(F)cc(N5CCC5)c4)cs3)ccc21 [Compound 289]"
  DATA_VALUE: "< 0.1 µM"
- COMPOUND: "C[C@@H]1CN(c2cccc(-c3csc(NC(=O)CNC(=O)c4cccc(C5(O)COC5)c4)n3)c2)C[C@H](C)O1 [Compound 184]"
  DATA_VALUE: "1 to 5 µM"
- COMPOUND: "C[C@@H]1CN(c2cccc(-c3csc(NC(=O)CNC(=O)c4cccc([C@]5(C)COC[C@H]5O)c4)n3)n2)C[C@H](C)O1 [Compound 408]"
  DATA_VALUE: "1 to 5 µM"
- COMPOUND: "COc1cccc(-c2csc(NC(=O)CNC(=O)c3ccc4c(c3)C(C)(O)COC4)n2)c1 (stereo not shown) [Compound 313]"
  DATA_VALUE: "1 to 5 µM"

###

# Emax listing for each entry below
# SYSTEM: BRG-1 (Homo sapiens, UniProt P51532)
# Sequence (P51532 whole entry): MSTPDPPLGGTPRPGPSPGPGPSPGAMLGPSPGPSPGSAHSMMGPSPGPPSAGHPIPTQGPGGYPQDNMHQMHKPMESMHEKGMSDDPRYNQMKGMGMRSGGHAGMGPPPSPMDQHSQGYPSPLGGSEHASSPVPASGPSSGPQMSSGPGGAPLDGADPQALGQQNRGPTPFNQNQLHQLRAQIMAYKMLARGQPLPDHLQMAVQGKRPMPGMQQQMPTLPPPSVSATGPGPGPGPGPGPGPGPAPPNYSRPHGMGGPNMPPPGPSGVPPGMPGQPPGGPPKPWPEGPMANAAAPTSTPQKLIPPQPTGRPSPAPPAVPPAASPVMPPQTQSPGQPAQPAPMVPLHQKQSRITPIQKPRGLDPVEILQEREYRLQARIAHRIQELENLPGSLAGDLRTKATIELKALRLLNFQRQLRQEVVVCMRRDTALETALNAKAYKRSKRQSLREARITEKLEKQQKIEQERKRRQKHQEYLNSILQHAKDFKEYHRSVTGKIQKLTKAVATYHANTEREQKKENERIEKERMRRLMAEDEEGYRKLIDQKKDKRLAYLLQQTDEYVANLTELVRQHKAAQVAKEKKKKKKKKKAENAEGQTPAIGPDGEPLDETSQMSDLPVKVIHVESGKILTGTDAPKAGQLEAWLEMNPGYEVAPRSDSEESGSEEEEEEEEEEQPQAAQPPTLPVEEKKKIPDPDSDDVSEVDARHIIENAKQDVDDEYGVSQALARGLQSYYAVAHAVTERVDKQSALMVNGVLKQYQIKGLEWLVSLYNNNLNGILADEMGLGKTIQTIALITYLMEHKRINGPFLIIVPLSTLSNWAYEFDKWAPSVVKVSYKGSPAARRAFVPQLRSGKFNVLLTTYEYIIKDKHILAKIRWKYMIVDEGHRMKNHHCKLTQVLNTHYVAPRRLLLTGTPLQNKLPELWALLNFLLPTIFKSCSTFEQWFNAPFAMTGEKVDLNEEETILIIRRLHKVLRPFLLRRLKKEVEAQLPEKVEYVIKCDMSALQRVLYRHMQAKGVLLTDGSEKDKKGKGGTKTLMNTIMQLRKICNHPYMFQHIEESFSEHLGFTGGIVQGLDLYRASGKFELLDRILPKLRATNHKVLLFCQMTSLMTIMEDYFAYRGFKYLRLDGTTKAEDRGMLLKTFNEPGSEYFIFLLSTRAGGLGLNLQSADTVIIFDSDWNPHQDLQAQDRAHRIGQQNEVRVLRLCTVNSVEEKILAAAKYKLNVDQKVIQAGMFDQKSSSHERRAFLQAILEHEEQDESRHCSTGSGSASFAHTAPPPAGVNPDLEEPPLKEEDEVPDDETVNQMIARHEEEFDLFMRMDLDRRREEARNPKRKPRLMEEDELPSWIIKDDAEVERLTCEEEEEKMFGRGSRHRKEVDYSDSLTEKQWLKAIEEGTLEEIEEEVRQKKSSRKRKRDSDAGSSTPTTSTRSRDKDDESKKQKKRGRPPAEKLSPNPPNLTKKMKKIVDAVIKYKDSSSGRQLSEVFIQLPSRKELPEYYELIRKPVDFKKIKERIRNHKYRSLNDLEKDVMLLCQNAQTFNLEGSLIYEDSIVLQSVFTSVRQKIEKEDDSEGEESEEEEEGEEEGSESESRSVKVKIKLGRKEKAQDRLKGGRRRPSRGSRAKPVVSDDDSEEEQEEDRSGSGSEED
# TEST: ATPase catalytic activity assay of BRG-1 (ADP-Glo)
# Format: biochemical
# PROTOCOL_CONDITIONS: ATPase catalytic activity, ADP-Glo; read-out: BRG1 Max % Inhibition

- MOLECULE: "COc1cccc(-c2csc(NC(=O)CNC(=O)c3ccc4c(c3)[C@](C)(C#N)COC4)n2)c1"
  Emax: "> 95%"
- MOLECULE: "C[C@@H]1CN(c2cccc(-c3csc(NC(=O)CNC(=O)c4ccc5c(c4)CCCCO5)n3)n2)C[C@H](C)O1"
  Emax: "> 90%"
- MOLECULE: "COC(=O)N1CCC[C@@H](c2csc(NC(=O)CNC(=O)c3ccc4c(c3)[C@@](C)(C#N)COC4)n2)C1 (stereo in doubt)"
  Emax: "> 95%"
- MOLECULE: "Cn1cnc2ccc(-c3csc(NC(=O)CNC(=O)c4ccc5c(c4)[C@](C)(CO)CC5)n3)cc21"
  Emax: "> 60%"

###

# Emax listing for each entry below
# SYSTEM: BRG-1 (Homo sapiens, UniProt P51532)
# TEST: ATPase catalytic activity assay of BRG-1 (ADP-Glo)
# Format: biochemical
# PROTOCOL_CONDITIONS: ATPase catalytic activity, ADP-Glo; read-out: BRG1 Max % Inhibition

- MOLECULE: "C[C@@H]1CN(c2cccc(-c3csc(NC(=O)CNC(=O)c4ccc(Cl)c(C(C)(C)CO)c4)n3)c2)C[C@H](C)O1"
  Emax: "> 95%"
- MOLECULE: "CC(=O)N(C)c1cc(-c2cccc(-c3csc(NC(=O)CNC(=O)c4cccc(S(=O)(=O)C(C)C)c4)n3)c2)ccn1"
  Emax: "> 80%"
- MOLECULE: "CC(C)S(=O)(=O)c1cccc(C(=O)NCC(=O)Nc2nc(-c3cccc(-c4cc(C#N)cc(C#N)c4)c3)cs2)c1"
  Emax: "> 70%"
- MOLECULE: "C[C@@H]1CN(c2cccc(-c3csc(NC(=O)CNC(=O)c4ccc5c(c4)C(C)(C#N)OCC5)n3)n2)C[C@H](C)O1 (stereo partly shown)"
  Emax: "> 90%"
- MOLECULE: "Cc1cc(-c2cccc(-c3csc(NC(=O)CNC(=O)c4ccc5c(c4)[C@@](C)(CO)CC5)n3)n2)ncn1"
  Emax: "> 90%"
- MOLECULE: "COc1nccc(-c2cccc(-c3csc(NC(=O)CNC(=O)c4cccc(S(=O)(=O)C(C)C)c4)n3)n2)n1"
  Emax: "> 80%"
- MOLECULE: "C[C@]1(CO)CCc2ccc(C(=O)NCC(=O)Nc3nc(-c4cccc(-c5cnccn5)n4)cs3)cc21"
  Emax: "> 50%"

###

# Emax listing for each entry below
# SYSTEM: BRG-1 (Homo sapiens, UniProt P51532)
# TEST: ATPase catalytic activity assay of BRG-1 (ADP-Glo)
# Type: biochemical
# PROTOCOL_CONDITIONS: ATPase catalytic activity, ADP-Glo; read-out: BRG1 Max % Inhibition

- COMPOUND: "C[Si](C)(C)c1cccc(C(=O)NCC(=O)Nc2nc(-c3cccc(-c4ccncc4)c3)cs2)c1 [Compound 248]"
  SYSTEM: "BRG-1 (Homo sapiens, UniProt P51532)"
  Emax: "> 30%"
- COMPOUND: "C[C@@H]1CN(c2cccc(-c3csc(NC(=O)CNC(=O)c4ccc5c(c4)C(C)(C)COC5)n3)n2)C[C@H](C)O1 [Compound 282]"
  SYSTEM: "BRG-1 (Homo sapiens, UniProt P51532)"
  Emax: "> 95%"
- COMPOUND: "CC(C)(CN)c1cccc(C(=O)NCC(=O)Nc2nc(-c3cccc(-c4cc(Cl)cc(Cl)c4)c3)cs2)c1 [Compound 51]"
  SYSTEM: "BRG-1 (Homo sapiens, UniProt P51532)"
  Emax: "> 50%"
- COMPOUND: "Cc1cc(-c2cccc(-c3csc(NC(=O)CNC(=O)c4ccc5c(c4)[C@](C)(CO)CC5)n3)n2)ncn1 [Compound 203]"
  SYSTEM: "BRG-1 (Homo sapiens, UniProt P51532)"
  Emax: "> 95%"
- COMPOUND: "COc1cc(F)cc(-c2csc(NC(=O)CNC(=O)c3ccc4c(c3)[C@](C)(F)COC4)n2)c1 [Compound 337]"
  SYSTEM: "BRG-1 (Homo sapiens, UniProt P51532)"
  Emax: "> 95%"
- COMPOUND: "C[C@@H]1CN(c2cccc(-c3csc(NC(=O)CNC(=O)c4ccc5c(c4)CCOC5)n3)n2)C[C@H](C)O1 [Compound 366]"
  SYSTEM: "BRG-1 (Homo sapiens, UniProt P51532)"
  Emax: "> 85%"
- COMPOUND: "C[C@@H]1CN(c2cccc(-c3csc(NC(=O)CNC(=O)c4ccnc(C(C)(C)C)c4)n3)c2)C[C@H](C)O1 [Compound 205]"
  SYSTEM: "BRG-1 (Homo sapiens, UniProt P51532)"
  Emax: "> 70%"
- COMPOUND: "Cc1cc(-c2cccc(-c3csc(NC(=O)CNC(=O)c4cccc(S(=O)(=O)C(C)C)c4)n3)c2)cc(C)n1 [Compound 18]"
  SYSTEM: "BRG-1 (Homo sapiens, UniProt P51532)"
  Emax: "> 95%"
- COMPOUND: "Cn1ccc2ccc(-c3csc(NC(=O)CNC(=O)c4ccc5c(c4)[C@@](C)(CO)CC5)n3)cc2c1=O [Compound 181]"
  SYSTEM: "BRG-1 (Homo sapiens, UniProt P51532)"
  Emax: "> 70%"
- COMPOUND: "C[C@@H]1CN(c2cccc(-c3csc(NC(=O)CNC(=O)c4ccc5c(c4)C(C)(O)CCO5)n3)c2)C[C@H](C)O1 (some centres unmarked) [Compound 136]"
  SYSTEM: "BRG-1 (Homo sapiens, UniProt P51532)"
  Emax: "> 70%"
- COMPOUND: "C[C@@]1(C#N)COCc2ccc(C(=O)NCC(=O)Nc3nc(-c4cccc([C@@]56CCOC[C@@H]5C6)n4)cs3)cc21 [Compound 292]"
  SYSTEM: "BRG-1 (Homo sapiens, UniProt P51532)"
  Emax: "> 95%"
- COMPOUND: "C[C@@H]1CN(c2cccc(-c3csc(NC(=O)CNC(=O)c4ccc5c(c4)[C@H](C#N)CCO5)n3)n2)C[C@H](C)O1 (racemic) [Compound 405]"
  SYSTEM: "BRG-1 (Homo sapiens, UniProt P51532)"
  Emax: "> 90%"
- COMPOUND: "COc1cccc(-c2csc(NC(=O)CNC(=O)c3ccc4c(c3)C(C)(F)CCCO4)n2)c1 (stereo in doubt) [Compound 324]"
  SYSTEM: "BRG-1 (Homo sapiens, UniProt P51532)"
  Emax: "> 90%"
- COMPOUND: "C[C@@]1(C#N)COCc2ccc(C(=O)NCC(=O)Nc3nc(-c4cccc([C@H]5CC5(F)F)n4)cs3)cc21 [Compound 387]"
  SYSTEM: "BRG-1 (Homo sapiens, UniProt P51532)"
  Emax: "> 95%"
